Target: Fuc(a1-2)[Gal(a1-3)]Gal(b1-3)GlcNAc(b1-2)Man(a1-3)[Fuc(a1-2)[Gal(a1-3)]Gal(b1-3)GlcNAc(b1-2)Man(a1-6)]Man(b1-4)GlcNAc(b1-4)[Fuc(a1-6)]GlcNAc
Assay: glycan array binding signal (z-score within array); higher = stronger binding
Settings: glycan notation: IUPAC condensed, linker removed
About 410 targets per protein were measured; listed, in parts, are those with the strongest signals and a random draw of the rest.
This section presents binders with their documented glycan array binding signal (z-score) values.

binder	glycan array binding signal (z-score)
Sebin1 (Coprinopsis cinerea), A8PEE3 (protein) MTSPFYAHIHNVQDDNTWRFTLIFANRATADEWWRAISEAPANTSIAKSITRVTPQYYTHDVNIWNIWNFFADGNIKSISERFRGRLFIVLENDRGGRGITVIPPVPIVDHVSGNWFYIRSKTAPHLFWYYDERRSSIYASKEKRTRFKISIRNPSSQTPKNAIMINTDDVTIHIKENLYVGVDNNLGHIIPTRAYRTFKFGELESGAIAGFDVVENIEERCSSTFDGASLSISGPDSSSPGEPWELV	2.8
Nictaba (Nicotiana tabacum), Q94EW1 (protein) MQGQWIAARDLSITWVDNPQYWTWKTVDPNIEVAELRRVAWLDIYGKIETKNLIRKTSYAVYLVFKLTDNPRELERATASLRFVNEVAEGAGIEGTTVFISKKKKLPGELGRFPHLRSDGWLEIKLGEFFNNLGEDGEVEMRLMEINDKTWKSGIIVKGFDIRPN	-0.187
rCnSL-proB (Clitocybe nebularis) (protein) PTFSPIFALLAFLPFGTLASLLPQTQLVFRINPNLPGPNDVFVGYRGTNNVVGAIYERDGIKDTPMNNGADAELGPGSYITDDLFTAQIFASGSAGNNPGTTATVCKIYADGVQWRGAPKGYLPVLYFGNGQAAEQTRQTYLQGLDIPGTAIRFANLAKTPNQGPTAPRQMVVPSGGLQTLLKASCFPANHAALPQVLSYFNVRAALPPGWNIRTGPEFPNWTN	0.259
